tested on: MDR1 (P-gp); test: Blood-brain-barrier (BBB) penetration potential via MDCK-MDR1 permeability assay; conditions: dog, MDCK-MDR1, pH 7.4, MDCK-MDR1: Papp B-A, B-A direction
Answer Condition not met if Papp B→A at 120 min, 5 μM is under 40 ×10⁻⁶ cm/s, and Condition met if it is 40 ×10⁻⁶ cm/s or more.

[in] Please indicate if the recorded Papp B→A at 120 min, 5 μM for "CN(c1ccc(-c2ccc(-n3nccn3)cc2O)nn1)[C@@H]1C[C@H]2CCC[C@H](N2)[C@@H]1F" meets or exceeds 40 ×10⁻⁶ cm/s.
[out] Condition not met

[in] Please indicate if the recorded Papp B→A at 120 min, 5 μM for CN(c1ccc(-c2cc3cncnc3cc2O)nn1)[C@@H]1C[C@H]2CC[C@H](N2)[C@@H]1F [Compound 75A] meets or exceeds 40 ×10⁻⁶ cm/s.
[out] Condition met

[in] Please indicate if the recorded Papp B→A at 120 min, 5 μM for CN(c1ccc(-c2ccc(-c3cnn(C(F)F)c3)cc2O)nn1)[C@H]1C[C@@H]2CCC[C@@H](N2)[C@H]1F [Compound 21B] meets or exceeds 40 ×10⁻⁶ cm/s.
[out] Condition not met

[in] Please indicate if the recorded Papp B→A at 120 min, 5 μM for CN(c1ccc(-c2ccc(-n3ccnn3)cc2O)nn1)[C@@H]1C[C@H]2CC[C@H](N2)[C@@H]1F [Compound 61A] meets or exceeds 40 ×10⁻⁶ cm/s.
[out] Condition met

Continuing:
[in] Please indicate if the recorded Papp B→A at 120 min, 5 μM for CN(c1ccc(-c2cc3cccnc3cc2O)nn1)[C@@H]1C[C@H]2CC(F)(F)[C@@H](C1)N2 [Compound 45A] meets or exceeds 40 ×10⁻⁶ cm/s.
[out] Condition met

[in] Please indicate if the recorded Papp B→A at 120 min, 5 μM for CN(c1ccc(-c2cc3ncccc3cc2O)nn1)[C@H]1C[C@@H]2CCC[C@@H](N2)[C@H]1F [Compound 78B] meets or exceeds 40 ×10⁻⁶ cm/s.
[out] Condition met

[in] Please indicate if the recorded Papp B→A at 120 min, 5 μM for CN(c1ccc(-c2cc3cccnc3cc2O)nn1)[C@@H]1C[C@H]2CCC[C@H](N2)[C@@H]1F [Compound 41A] meets or exceeds 40 ×10⁻⁶ cm/s.
[out] Condition met

[in] Please indicate if the recorded Papp B→A at 120 min, 5 μM for CN(c1ccc(-c2cc3oc(=O)n(C)c3cc2O)nn1)[C@H]1C[C@@H]2CC[C@@H](N2)[C@H]1F (single isomer, unassigned) [Compound 79B] meets or exceeds 40 ×10⁻⁶ cm/s.
[out] Condition met

[in] Please indicate if the recorded Papp B→A at 120 min, 5 μM for CN(c1ccc(-c2ccc(-n3ccnc3)cc2O)nn1)[C@@H]1C[C@H]2CCC[C@H](N2)[C@@H]1F [Compound 11A] meets or exceeds 40 ×10⁻⁶ cm/s.
[out] Condition met

[in] Please indicate if the recorded Papp B→A at 120 min, 5 μM for CC#Cc1ccc(-c2ccc(N(C)C3CC4CCC(N4)C3F)nn2)c(O)c1 (single isomer, unassigned) [Compound 30B] meets or exceeds 40 ×10⁻⁶ cm/s.
[out] Condition not met

[in] Please indicate if the recorded Papp B→A at 120 min, 5 μM for CN(c1ccc(-c2cc3ncn(C)c(=O)c3cc2O)nn1)[C@@H]1C[C@H]2CC[C@H](N2)[C@@H]1F [Compound 51A] meets or exceeds 40 ×10⁻⁶ cm/s.
[out] Condition not met

====

tested on: MDR1-MDCK cell monolayers; assay: Blood-brain-barrier (BBB) penetration potential via MDCK-MDR1 permeability assay; conditions: A-B direction
Consider the following molecules; for each one, report its MDCK-MDR1: % Recov A-B.
Include the unit after the number when you answer.

Consider the reported MDCK-MDR1: % Recov A-B for these molecules:
[in] Short answer please: MDCK-MDR1: % Recov A-B, MDR1-MDCK cell monolayers, entry CN(c1ccc(-c2ccc(-c3nnco3)cc2O)nn1)[C@H]1C[C@@H]2CC[C@@H](N2)[C@H]1F [Compound 44B]
[out] 91%

[in] Short answer please: MDCK-MDR1: % Recov A-B, MDR1-MDCK cell monolayers, entry CN(c1ccc(-c2cc(F)c(-n3ccnn3)cc2O)nn1)[C@H]1C[C@@H]2CC[C@@H](N2)[C@H]1F [Compound 52B]
[out] 97%

[in] Short answer please: MDCK-MDR1: % Recov A-B, MDR1-MDCK cell monolayers, entry CCN(c1ccc(-c2ccc(-c3cn[nH]c3)cc2O)nn1)[C@H]1C[C@@H]2CC[C@@H](N2)[C@H]1F [Compound 12B]
[out] 57%

[in] Short answer please: MDCK-MDR1: % Recov A-B, MDR1-MDCK cell monolayers, entry CN(c1ccc(-c2cc3ncn(CC(F)(F)F)c(=O)c3cc2O)nn1)[C@@H]1C[C@H]2CCC[C@H](N2)[C@@H]1F [Compound 58A]
[out] 86%

[in] Short answer please: MDCK-MDR1: % Recov A-B, MDR1-MDCK cell monolayers, entry CN(c1ccc(-c2cc3ncccc3cc2O)nn1)[C@H]1C[C@@H]2CCC[C@@H](N2)[C@H]1F [Compound 78B]
[out] 73%

[in] Short answer please: MDCK-MDR1: % Recov A-B, MDR1-MDCK cell monolayers, entry CN(c1ccc(-c2ccc(-c3ccn(C)n3)cc2O)nn1)[C@H]1C[C@@H]2CC[C@@H](N2)[C@H]1F (single isomer, unassigned) [Compound 36B]
[out] 72%

// below: MDCK-MDR1: % Recov A-B requested for another molecule
[in] Short answer please: MDCK-MDR1: % Recov A-B, MDR1-MDCK cell monolayers, entry CN(c1ccc(-c2cc3c(F)cn(C)c(=O)c3cc2O)nn1)[C@@H]1C[C@H]2CC[C@H](N2)[C@@H]1F [Compound 54A]
[out] 108%

====

tested on: mHTT protein in GM04724 (CAG 70/20) Huntington's disease patient lymphoblast cells; test: mHTT protein assay, 2B7-MW1 assay via Mesoscale Discovery (MSD); format: cell-based, human; conditions: GM04724 Huntington's disease patient lymphoblasts
experimentalEndpoint: EC50

Consider the reported EC50 for these molecules:
[in] Name the recorded EC50 for "CN(c1ccc(-c2ccc(-n3nccn3)cc2O)nn1)[C@@H]1C[C@H]2CCC[C@H](N2)[C@@H]1F" .
[out] 0.01 to 15 nM

[in] Name the recorded EC50 for CCc1cn(-c2ccc(-c3ccc(N(C)[C@H]4C[C@@H]5CC(F)(F)[C@H](C4)N5)nn3)c(O)c2)nn1 (single isomer, unassigned) [Compound 64B] .
[out] 101 to 500 nM

Would you mind listing EC50 for each of the following molecules?
1. CN(c1ccc(-c2ccc(-c3cn[nH]c3)cc2O)nn1)C1CC2COCC(N2)C1F (stereo not shown) [Compound 8B]
2. CN(c1ccc(-c2ccc(-n3ccnn3)cc2O)nn1)[C@@H]1C[C@H]2CCC[C@H](N2)[C@@H]1F [Compound 62A]
3. CN(c1ccc(-c2cc3ncn(C)c(=O)c3cc2O)nn1)[C@@H]1C[C@H]2CC[C@H](N2)[C@@H]1F [Compound 51A]

[out]
0.01 to 15 nM
0.01 to 15 nM
0.01 to 15 nM

Would you mind listing EC50 for each of the following molecules?
1. CN(c1ccc(-c2ccc(-c3cnn(C)c3)cc2O)nn1)C1CC2COCC(N2)C1F (single isomer, unassigned) [Compound 80A]
2. CN1[C@H]2CC[C@@H]1[C@@H](F)[C@@H](N(c1ccc(-c3cc4oc(C(=O)N5CCC5)cc4cc3O)nn1)C1CC1)C2 (single isomer, unassigned) [Compound 92B]

[out]
1. 51 to 100 nM
2. 101 to 500 nM

====

tested on: MDR1-MDCK cell monolayers; experiment: Blood-brain-barrier (BBB) penetration potential via MDCK-MDR1 permeability assay; conditions: B-A direction
experimentalEndpoint: MDCK-MDR1: % Recov B-A (%)
Numbers only, in %.

Would you mind listing MDCK-MDR1: % Recov B-A for each of the following molecules?
1. CN(c1ccc(-c2cc3nnccc3cc2O)nn1)[C@@H]1C[C@H]2CC[C@H](N2)[C@@H]1F [Compound 89A]
2. CN(c1ccc(-c2cc3c(F)cn(C)c(=O)c3cc2O)nn1)[C@@H]1C[C@H]2CC[C@H](N2)[C@@H]1F [Compound 54A]
3. CN(c1ccc(-c2ccc(-n3cnc(C#N)c3)cc2O)nn1)[C@H]1C[C@@H]2CCC[C@@H](N2)[C@H]1F [Compound 63B]
4. CN(c1ccc(-c2ccc(C3=CCCC3)cc2O)nn1)[C@@H]1C[C@H]2CC[C@H](N2)[C@@H]1F [Compound 34A]
5. CN(c1ccc(-c2ccc(-n3cnc(C#N)c3)cc2O)nn1)[C@H]1C[C@@H]2CC[C@@H](N2)[C@H]1F [Compound 69B]

[out]
[106, 115, 96, 55, 90]

Would you mind listing MDCK-MDR1: % Recov B-A for each of the following molecules?
1. CN(c1ccc(-c2ccc(-c3ccn(C)n3)cc2O)nn1)[C@H]1C[C@@H]2CC[C@@H](N2)[C@H]1F (single isomer, unassigned) [Compound 36B]
2. CN(c1ccc(-c2cc3ccn(C)c(=O)c3cc2O)nn1)[C@@H]1C[C@H]2CC[C@H](N2)[C@@H]1F [Compound 84A]
3. CN(c1ccc(-c2ccc(-c3cnn(C)c3)cc2O)nn1)[C@H]1C[C@@H]2CCC[C@@H](N2)[C@H]1F [Compound 15B]
4. CN(c1ccc(-c2cc3c(=O)n(C)cnc3cc2O)nn1)[C@H]1C[C@@H]2CC[C@@H](N2)[C@H]1F [Compound 85B]
5. CN(c1ccc(-c2ccc(-n3nccn3)cc2O)nn1)[C@H]1C[C@@H]2CC[C@@H](N2)[C@H]1F [Compound 90B]
6. Cc1ccc(-c2ccc(-c3ccc(N(C)[C@@H]4C[C@H]5CCC[C@H](N5)[C@@H]4F)nn3)c(O)c2)nn1 [Compound 27A]
7. CN(c1ccc(-c2cc3ncn(C)c(=O)c3cc2O)nn1)[C@H]1C[C@@H]2CC[C@@H](N2)[C@H]1F [Compound 51B]
8. CN(c1ccc(-c2cc3ncn(CC(F)(F)F)c(=O)c3cc2O)nn1)[C@@H]1C[C@H]2CC(F)(F)[C@@H](C1)N2 [Compound 59A]

[out]
[79, 90, 84, 103, 67, 86, 90, 96]
